Reference for the values: patent US20250320496A1

- Tested on: human ABCB11 mRNA
- test.name: ASO treatment of primary human hepatocytes (PHH), ABCB11 mRNA by RT-qPCR normalized to B2M
- Type: cell-based
- test.settings: primary human hepatocytes, 5 μM ASO, normalized to untreated PHHs (UNT)
Strand notation (5' to 3'): a small letter for the sugar, then the base; units joined by * are phosphorothioate-linked, units joined directly phosphodiester-linked; [ ] holds rarer units or linkages, { } end groups; capitals alone tell only the bases. e = 2'-O-(2-methoxyethyl) (MOE); l = locked nucleic acid (LNA); [5mC] = 5-methylcytosine
measurement.name: ABCB11 mRNA FC (5 μM ASO vs. UNT) (fold change)

# substance, measurement.name, obs.value
rows = [
    ("CO-4497 (antisense eG*eG*eT*eG*eT*eT*eG*eA*eG*eA*eA*e[5mC]*eT*eA*eG*eA*eA*eT*eA*eT)", "ABCB11 mRNA FC (5 μM ASO vs. UNT)", 1.024),
    ("CO-4501 (antisense eG*e[5mC]*eA*eT*eG*eG*eT*eA*eG*e[5mC]*eT*eA*eG*eT*eG*eA*eT*eA*eA*eT)", "ABCB11 mRNA FC (5 μM ASO vs. UNT)", 1.023),
    ("CO-7180: derivative ASO with additional chemical modifications based on parent ASO CO-4529 (antisense eG*eT*lG*eG*eA*lG*e[5mC]*eA*lA*eA*e[5mC]*lT*eA*eG*lG*e[5mC]*eA*l[5mC]*eT*eG)", "ABCB11 mRNA FC (5 μM ASO vs. UNT)", 2.04),
    ("CO-7043 (antisense eT*eT*eG*e[5mC]*eT*eT*eG*eG*eT*e[5mC]*eA*eA*eG*eA*eG*eG*eA*eA*eA*eG)", "ABCB11 mRNA FC (5 μM ASO vs. UNT)", 1.1),
]
